Documented IC50 across a set of compounds
# measured.target: EGFR (d746-750 C797S) (Homo sapiens, UniProt P00533, C797S/DEL746-750)
# Construct: purchased signalchem
# Sequence (P00533 with tags, fused parts or gaps DEL746-750/C797S limits assumed): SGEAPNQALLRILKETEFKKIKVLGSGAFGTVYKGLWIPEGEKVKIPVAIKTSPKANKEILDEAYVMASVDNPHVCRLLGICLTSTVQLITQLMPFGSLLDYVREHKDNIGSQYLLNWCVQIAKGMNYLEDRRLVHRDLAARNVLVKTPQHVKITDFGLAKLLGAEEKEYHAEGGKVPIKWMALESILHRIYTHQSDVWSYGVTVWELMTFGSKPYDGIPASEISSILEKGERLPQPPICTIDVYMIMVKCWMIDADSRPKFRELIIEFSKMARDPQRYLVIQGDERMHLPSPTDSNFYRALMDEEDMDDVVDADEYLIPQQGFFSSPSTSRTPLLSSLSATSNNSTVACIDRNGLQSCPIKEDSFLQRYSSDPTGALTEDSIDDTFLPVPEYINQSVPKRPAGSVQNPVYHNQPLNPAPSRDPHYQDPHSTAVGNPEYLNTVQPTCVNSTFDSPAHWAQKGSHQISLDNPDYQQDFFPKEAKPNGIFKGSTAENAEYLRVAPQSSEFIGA
# assay.overview: Inhibition of EGFR (d746-750 C797S) biochemical enzymatic activity (HTRF)
# experimental.conditions: EGFR Del19-C797S, 1 mM ATP, 1 h, room temperature, read-out: IC50 (nM) @Del19-C797S
# Experimental: Biological Example 1: Inhibition of EGFR WT and Mutant Biochemical Enzymatic Activity The inhibition potency of compounds against these enzymes was assessed using Homogenous Time Resolved Fluorescence approach (HTRF, CisBio. Cat No. 62TKOPEJ). Inhibitory effects of the compounds were determined by measuring the enzymatic activity of EGFR enzyme phosphorylates 1 μM TK Substrate-biotin in the presence of 1 mM adenosine-5′-triphosphate (ATP) and varying concentrations of the test compound. […]
Respond numerically; units are nM and should not be typed.

compound	IC50, nM
CN1CCC2(CC1)CCN(c1ccc3nc4n(c3c1)C13CCC(CC1)CN(CCOc1c(cnn1C)-c1cc(cn(C)c1=O)C(=O)N4)C3)C2	9.4

# lookup: IC50 of CN1CCN(c2ccc3c(c2)nc2n3C34CCC(CN(CCOc5c(cnn5C)-c5cc(cn(C)c5=O)C(=O)N2)C3)C4)CC1 (stereo not drawn) [Example A60B]
1.7

For CN1CC2(C1)CN(c1ccc3nc4n(c3c1)C13CCC(CN(CCOc5c(cnn5C)-c5cc(cn(C)c5=O)C(=O)N4)C1)C3)C2 (single isomer, unassigned) [Example A92A] then?
449

For C[C@@H]1CCCNc2c(cnn2C)-c2cc(cn(C)c2=O)C(=O)Nc2nc3ccc(N4CCN(C)CC4)cc3n2C1 then?
175

----------
# measured.target: EGFR L858R/T790M (Homo sapiens, UniProt P00533, L858R/T790M)
# Construct: purchased Carna Bio
# Sequence (P00533 25-1210 T790M/L858R): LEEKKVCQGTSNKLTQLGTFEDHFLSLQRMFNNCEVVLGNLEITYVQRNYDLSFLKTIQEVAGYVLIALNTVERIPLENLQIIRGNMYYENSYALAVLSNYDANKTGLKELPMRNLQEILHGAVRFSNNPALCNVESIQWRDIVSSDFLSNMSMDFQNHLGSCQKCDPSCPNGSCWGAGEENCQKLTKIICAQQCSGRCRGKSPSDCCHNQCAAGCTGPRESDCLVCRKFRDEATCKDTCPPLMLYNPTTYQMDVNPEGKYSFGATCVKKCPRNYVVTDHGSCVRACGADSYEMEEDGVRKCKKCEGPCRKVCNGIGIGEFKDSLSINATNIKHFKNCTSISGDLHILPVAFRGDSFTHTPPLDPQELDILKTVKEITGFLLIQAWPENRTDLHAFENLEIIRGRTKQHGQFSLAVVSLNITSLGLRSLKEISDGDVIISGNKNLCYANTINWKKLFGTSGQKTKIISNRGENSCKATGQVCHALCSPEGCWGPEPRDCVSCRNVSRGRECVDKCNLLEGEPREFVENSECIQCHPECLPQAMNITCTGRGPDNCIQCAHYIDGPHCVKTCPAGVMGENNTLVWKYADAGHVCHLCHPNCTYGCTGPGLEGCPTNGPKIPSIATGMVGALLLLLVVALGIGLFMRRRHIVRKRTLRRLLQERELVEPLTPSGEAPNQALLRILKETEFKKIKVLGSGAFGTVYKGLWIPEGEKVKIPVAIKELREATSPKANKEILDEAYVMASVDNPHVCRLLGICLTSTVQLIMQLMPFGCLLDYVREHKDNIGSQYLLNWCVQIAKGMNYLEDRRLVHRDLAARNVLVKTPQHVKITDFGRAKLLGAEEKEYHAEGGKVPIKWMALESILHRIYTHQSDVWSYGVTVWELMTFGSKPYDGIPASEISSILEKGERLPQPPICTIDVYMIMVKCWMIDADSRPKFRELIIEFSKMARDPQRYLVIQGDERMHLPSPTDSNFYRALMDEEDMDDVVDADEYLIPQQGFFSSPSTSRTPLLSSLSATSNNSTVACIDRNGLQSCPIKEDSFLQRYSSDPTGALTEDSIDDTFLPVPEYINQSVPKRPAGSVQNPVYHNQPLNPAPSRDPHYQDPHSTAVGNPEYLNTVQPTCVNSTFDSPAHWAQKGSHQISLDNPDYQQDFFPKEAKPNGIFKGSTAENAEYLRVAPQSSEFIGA
# assay.overview: Inhibition of EGFR L858R/T790M biochemical enzymatic activity (HTRF)
# experimental.conditions: EGFR L858R-T790M, 1 mM ATP, 1 h, room temperature, read-out: IC50 (nM) @L858R-T790M
Documented IC50 across a set of molecules
Respond numerically; units are nM and should not be typed.

For orientation, consider the following solved cases.
molecule	measured.target	reported
C[C@@H]1CCCOc2c(cnn2C)-c2cc(cn(C)c2=O)C(=O)Nc2nc3ccc(N4CCC(N5CCN(C)CC5)CC4)cc3n2C1	EGFR L858R/T790M (Homo sapiens, UniProt P00533, L858R/T790M)	15
C[C@@H]1CCCOc2c(cnn2C)-c2cc(cn(C)c2=O)C(=O)Nc2nc3ccc(N4CC5(CCN(C)CC5(F)F)C4)cc3n2C1	EGFR L858R/T790M (Homo sapiens, UniProt P00533, L858R/T790M)	32
Cn1ncc2c1OCCN1CC3CCC(C3)(C1)n1c(nc3ccc(N4CCN(C5CC5)CC4)cc31)NC(=O)c1cc-2c(=O)n(C)c1 (single isomer, unassigned) [Example A83B]	EGFR L858R/T790M (Homo sapiens, UniProt P00533, L858R/T790M)	2.8

# lookup: IC50 of CN(C)C1CN(c2ccc3nc4n(c3c2)C23CCC(CN(CCOc5c(cnn5C)-c5cc(cn(C)c5=O)C(=O)N4)C2)C3)CC1(F)F (single isomer, unassigned) [Example A99B]
11

For CN(C)C1CN(c2ccc3nc4n(c3c2)C23CCC(CN(CCOc5c(cnn5C)-c5cc(cn(C)c5=O)C(=O)N4)C2)C3)C1 (single isomer, unassigned) [Example A65B] then?
2.4

For CCC1CCCOc2c(cnn2C)-c2cc(cn(C)c2=O)C(=O)Nc2nc3ccc(N4CCN(C)CC4)cc3n2C1 (single isomer, unassigned) [Example A16B] then?
22

For C[C@@H]1CCCOc2c(cnn2C)-c2cc(cn(C)c2=O)C(=O)Nc2nc3ccc(N4CCC(N(C)C)C(F)(F)C4)cc3n2C1 (some centres unmarked) then?
33

For C[C@@H]1CCCOc2c(cnn2C)-c2cc(cn(C)c2=O)C(=O)Nc2nc3ccc(N4CCN(C(=O)OC(C)(C)C)CC4)cc3n2C1 then?
213
